Kindly state AC50 for each of the entries shown.
biological target: Progesterone receptor (Homo sapiens, UniProt P06401); further: assay procedure not described here
Sequence (P06401 whole entry): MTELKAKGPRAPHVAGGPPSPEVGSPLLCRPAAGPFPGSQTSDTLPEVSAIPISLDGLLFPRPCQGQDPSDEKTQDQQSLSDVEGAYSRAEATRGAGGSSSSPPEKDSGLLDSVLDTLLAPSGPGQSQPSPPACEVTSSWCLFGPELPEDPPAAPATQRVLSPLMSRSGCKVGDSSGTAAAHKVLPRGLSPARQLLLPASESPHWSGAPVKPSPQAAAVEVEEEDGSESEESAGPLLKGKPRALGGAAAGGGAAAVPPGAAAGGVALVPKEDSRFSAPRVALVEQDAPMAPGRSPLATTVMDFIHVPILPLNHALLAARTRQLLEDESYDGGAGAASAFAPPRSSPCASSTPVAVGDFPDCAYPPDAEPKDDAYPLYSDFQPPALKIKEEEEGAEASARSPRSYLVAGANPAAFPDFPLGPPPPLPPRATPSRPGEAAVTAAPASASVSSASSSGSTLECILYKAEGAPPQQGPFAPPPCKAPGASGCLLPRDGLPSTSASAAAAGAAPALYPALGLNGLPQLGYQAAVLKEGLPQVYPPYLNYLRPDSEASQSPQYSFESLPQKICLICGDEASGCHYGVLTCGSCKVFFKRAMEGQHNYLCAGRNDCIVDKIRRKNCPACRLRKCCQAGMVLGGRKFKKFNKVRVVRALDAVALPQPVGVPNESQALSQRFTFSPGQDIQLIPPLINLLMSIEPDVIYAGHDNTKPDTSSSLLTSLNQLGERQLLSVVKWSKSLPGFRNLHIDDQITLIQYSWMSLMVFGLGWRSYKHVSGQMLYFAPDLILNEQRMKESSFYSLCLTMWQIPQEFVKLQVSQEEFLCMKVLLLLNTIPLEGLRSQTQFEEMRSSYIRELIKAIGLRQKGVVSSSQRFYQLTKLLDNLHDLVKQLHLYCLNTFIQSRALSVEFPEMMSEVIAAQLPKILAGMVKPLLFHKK

Q. Given CC(=O)O[C@H]1Cc2ccccc2N(C(N)=O)c2ccccc21 [ESLICARBAZEPINE ACETATE] , state its recorded AC50.
A. > 30 µM

Q. Given C[Se]CC[C@H](N)C(=O)O , state its recorded AC50.
A. > 30 µM

Q. Given CC1(C)O[C@@H]2C[C@H]3[C@@H]4C[C@H](F)C5=CC(=O)C=C[C@]5(C)[C@@]4(F)[C@@H](O)C[C@]3(C)[C@]2(C(=O)CO)O1 [FLUOCINOLONE ACETONIDE] , state its recorded AC50.
A. 0.0107 µM

Q. Given CN1CCCN(C(c2ccccc2)c2ccc(Cl)cc2)CC1 (centres undefined) , state its recorded AC50.
A. > 30 µM

Q. Given CC1(C)S[C@@H]2[C@H](/N=C/N3CCCCCC3)C(=O)N2[C@H]1C(=O)O , state its recorded AC50.
A. > 30 µM

Q. Given O=C(CCC/C=C\C[C@@H]1[C@@H](CC[C@@H](O)CCc2ccccc2)[C@H](O)C[C@@H]1O)OCCCCO[N+](=O)[O-] , state its recorded AC50.
A. > 30 µM

Q. Given c1ccc2c(SC3=NCCN3)c[nH]c2c1 , state its recorded AC50.
A. 24 µM

Q. Given CCNC(=O)/C=C(C)/C=C/C=C(C)/C=C/c1c(C)cc(OC)c(C)c1C [MOTRETINIDE] , state its recorded AC50.
A. 0.932 µM

Q. Given CC(C(=O)O)c1cccc(Oc2ccccc2)c1 (centres undefined) , state its recorded AC50.
A. > 30 µM

Q. Given O=C(O)Cc1ccccc1Nc1c(Cl)cccc1Cl , state its recorded AC50.
A. > 3 µM

Q. Given Clc1ccc(C(Cn2ccnc2)OCc2csc3c(Cl)cccc23)c(Cl)c1 (centres undefined) , state its recorded AC50.
A. 0.831 µM

Q. Given Cc1ccc(C(=O)C(C)CN2CCCCC2)cc1 (centres undefined) , state its recorded AC50.
A. > 30 µM

Q. Given O=C(O)c1ccccc1 , state its recorded AC50.
A. > 30 µM

Q. Given CC(=O)OC[C@H]1O[C@@H](n2ncc(=O)[nH]c2=O)[C@H](OC(C)=O)[C@@H]1OC(C)=O , state its recorded AC50.
A. > 30 µM

Q. Given Cc1ccsc1C(=CCCN1CCC[C@@H](C(=O)O)C1)c1sccc1C , state its recorded AC50.
A. > 30 µM

Q. Given CCCCc1oc2ccc(NS(C)(=O)=O)cc2c1C(=O)c1ccc(OCCCN(CCCC)CCCC)cc1 , state its recorded AC50.
A. 0.64 µM

Q. Given O=C(O)[C@@H]1C[C@@H](O)CN1 , state its recorded AC50.
A. > 30 µM

Q. Given Cc1cc(C2CCCCC2)n(O)c(=O)c1 , state its recorded AC50.
A. > 30 µM

Q. Given CC(=O)NO [ACETOHYDROXAMIC ACID] , state its recorded AC50.
A. > 30 µM

----------
// values below are AC50; system is UniProt:P30518
Sequence (P30518 whole entry): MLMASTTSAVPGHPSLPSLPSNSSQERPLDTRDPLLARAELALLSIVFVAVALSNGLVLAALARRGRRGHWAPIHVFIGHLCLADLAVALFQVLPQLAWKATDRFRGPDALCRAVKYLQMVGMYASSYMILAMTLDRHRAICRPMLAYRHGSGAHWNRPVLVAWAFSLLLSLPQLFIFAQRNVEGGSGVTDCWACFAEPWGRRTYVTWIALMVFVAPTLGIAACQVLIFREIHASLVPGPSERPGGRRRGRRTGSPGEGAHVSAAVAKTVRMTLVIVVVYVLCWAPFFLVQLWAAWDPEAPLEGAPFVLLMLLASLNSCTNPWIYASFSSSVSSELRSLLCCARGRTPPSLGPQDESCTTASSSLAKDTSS

Q. Given C[C@]12C=CC(=O)C=C1CC[C@@H]1[C@@H]2CC[C@]2(C)OC(=O)CC[C@@H]12 [TESTOLACTONE] , state its recorded AC50.
A. > 10 µM

Q. Given O=C1Cc2cc(CCN3CCN(c4nsc5ccccc45)CC3)c(Cl)cc2N1 [ZIPRASIDONE] , state its recorded AC50.
A. > 30 µM

Q. Given NS(=O)(=O)c1cc2c(cc1Cl)N=C(CSCc1ccccc1)NS2(=O)=O [BENZTHIAZIDE] , state its recorded AC50.
A. > 10 µM

Q. Given COc1ccc(CN2CCN(C(c3ccc(F)cc3)c3ccc(F)cc3)CC2)c(OC)c1OC [LOMERIZINE] , state its recorded AC50.
A. > 30 µM

Q. Given Cc1cc(=O)n(-c2ccccc2)n1C [ANTIPYRINE] , state its recorded AC50.
A. > 30 µM

Q. Given CC(C)[C@H](N)C(=O)OCCOCn1cnc2c(=O)[nH]c(N)nc21 [VALACYCLOVIR] , state its recorded AC50.
A. > 30 µM

Q. Given CC[C@@H](CO)NC(=O)[C@@H]1C=C2c3cccc4c3c(cn4C)C[C@H]2N(C)C1 [METHYSERGIDE] , state its recorded AC50.
A. > 30 µM

Q. Given CCC1(CCC(C)C)C(=O)NC(=O)NC1=O [AMOBARBITAL] , state its recorded AC50.
A. > 10 µM

Q. Given CN[C@@H](C)[C@@H](O)c1ccccc1 [PSEUDOEPHEDRINE] , state its recorded AC50.
A. > 30 µM

----------
Biological target: UniProt:P08172
Sequence (P08172 whole entry): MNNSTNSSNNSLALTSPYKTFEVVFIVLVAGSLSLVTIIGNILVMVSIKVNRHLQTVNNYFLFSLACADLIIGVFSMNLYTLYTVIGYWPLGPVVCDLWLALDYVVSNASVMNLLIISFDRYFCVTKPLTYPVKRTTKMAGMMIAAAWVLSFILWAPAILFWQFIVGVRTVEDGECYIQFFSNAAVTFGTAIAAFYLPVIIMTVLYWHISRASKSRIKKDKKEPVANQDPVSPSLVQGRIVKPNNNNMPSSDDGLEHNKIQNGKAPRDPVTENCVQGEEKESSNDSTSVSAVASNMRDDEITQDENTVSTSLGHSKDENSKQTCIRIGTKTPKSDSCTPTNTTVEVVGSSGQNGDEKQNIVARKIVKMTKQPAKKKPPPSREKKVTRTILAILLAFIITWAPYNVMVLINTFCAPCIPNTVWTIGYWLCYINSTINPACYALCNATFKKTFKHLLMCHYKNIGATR
Type: functional, cell-based
Where a SMILES comes first, the peptide text is derived from it. [ ]: non-standard residue; d: D form. pGlu = O=C1CC[C@@H](C(=O)O)N1; Thz = O=C(O)[C@@H]1CSCN1
observedProperty: AC50

Q. Given CC(=O)[C@H]1CC[C@H]2[C@@H]3C[C@H](C)C4=CC(=O)CC[C@]4(C)[C@H]3[C@@H](O)C[C@]12C , state its recorded AC50.
A. > 10 µM

Q. Given O=C1CC[C@@H](C(=O)N2CSC[C@H]2C(=O)O)N1 [PIDOTIMOD] ([pGlu]-[Thz]-OH) , state its recorded AC50.
A. > 30 µM

Q. Given Cc1cc(C)nc(NS(=O)(=O)c2ccc(N)cc2)n1 , state its recorded AC50.
A. > 10 µM

Q. Given O=C(O)Cc1ccccc1Oc1ccc(Cl)cc1Cl , state its recorded AC50.
A. > 10 µM

Q. Given Cc1nnc(SCC2=C(C(=O)O)N3C(=O)[C@@H](NC(=O)Cn4cnnn4)[C@H]3SC2)s1 , state its recorded AC50.
A. > 300 µM

Q. Given Cc1nc(Nc2ncc(C(=O)Nc3c(C)cccc3Cl)s2)cc(N2CCN(CCO)CC2)n1 , state its recorded AC50.
A. > 30 µM

Q. Given c1ccc(C2(N3CCCCC3)CCCCC2)cc1 , state its recorded AC50.
A. > 30 µM

Q. Given CCC(=O)O[C@](Cc1ccccc1)(c1ccccc1)[C@H](C)CN(C)C , state its recorded AC50.
A. > 10 µM

Q. Given COc1cc(C(=O)NC2CCCNC2)cc(OC)c1OC (configuration not stated) [TROXIPIDE] , state its recorded AC50.
A. > 30 µM

Q. Given C[C@]12C/C(=C/O)C(=O)C[C@@H]1CC[C@@H]1[C@@H]2CC[C@@]2(C)[C@H]1CC[C@]2(C)O , state its recorded AC50.
A. > 30 µM

Q. Given C=CCN1CCc2nc(N)sc2CC1 [TALIPEXOLE] , state its recorded AC50.
A. > 30 µM

Q. Given C[C@@H]1C[C@H]2[C@@H]3CCC4=CC(=O)C=C[C@]4(C)[C@@]3(F)[C@@H](O)C[C@]2(C)[C@@]1(O)C(=O)CO , state its recorded AC50.
A. > 10 µM

Q. Given CCOc1cc([C@@H](CS(C)(=O)=O)N2C(=O)c3cccc(NC(C)=O)c3C2=O)ccc1OC , state its recorded AC50.
A. > 30 µM

Q. Given O=C1Nc2ccc(Cl)cc2C(c2ccccc2Cl)=NC1O (configuration not stated) , state its recorded AC50.
A. > 10 µM

Q. Given CO/N=C(\C(=O)N[C@@H]1C(=O)N2C(C(=O)O)=C(CSc3nc(=O)c(=O)[nH]n3C)CS[C@H]12)c1csc(N)n1 , state its recorded AC50.
A. > 30 µM

Q. Given CCOC(=O)C(C)(C)Oc1ccc(Cl)cc1 [CLOFIBRATE] , state its recorded AC50.
A. > 10 µM

Q. Given CO[C@H]1C[C@H](O[C@H]2CC[C@@]3(C)[C@H](CC[C@@H]4[C@@H]3CC[C@]3(C)[C@@H](C5=CC(=O)OC5)[C@@H](OC(C)=O)C[C@]43O)C2)O[C@@H](C)[C@@H]1O , state its recorded AC50.
A. > 30 µM

Data provenance is ChEMBL document CHEMBL5291721.
